System: Escherichia coli TOP10
Assay: shrunken log2 fold change of peptide-encoding DNA abundance (4.5 h post-induction vs induction); higher = less antimicrobial activity (less host growth inhibition)
Settings: time post-induction: 4.5 h; library: site-saturation at positions 5, 18, 19, 20
Form field: shrunken log2 fold change (one value per entry).
Output spec: single numeric token, no unit.

Sample records with shrunken log2 fold change:
Give shrunken log2 fold change for this entry on Escherichia coli TOP10: RRIRFRPPRLPRPRPRPQNKPRP
-0.592

Param request: shrunken log2 fold change | system Escherichia coli TOP10 | item RRIRWRPPRLPRPRPRPDRRPRP
-0.0279

GET shrunken log2 fold change | system: Escherichia coli TOP10 | item: RRIRFRPPRLPRPRPRPIHAPRP
-0.0507

Look up and report measured shrunken log2 fold change (Escherichia coli TOP10) for the following sequence: RRIRNRPPRLPRPRPRPNEFPRP
-0.692

Using Escherichia coli TOP10 as the test system, report measured shrunken log2 fold change of RRIRVRPPRLPRPRPRPDDVPRP .
-0.297

***
Please report the measured shrunken log2 fold change for RRIRTRPPRLPRPRPRPRDHPRP tested on Escherichia coli TOP10.
0.0565

State shrunken log2 fold change (Escherichia coli TOP10) of RRIRMRPPRLPRPRPRPWNPPRP .
0.12

###

Tested on: Escherichia coli TOP10
Test: shrunken log2 fold change of peptide-encoding DNA abundance (4.5 h post-induction vs induction); higher = less antimicrobial activity (less host growth inhibition)
Conditions: time post-induction: 4.5 h; library: site-saturation at positions 5, 18, 19, 20
Recorded measurements of shrunken log2 fold change, one per entry

Example entries begin here.
Quick one: give measured shrunken log2 fold change for RRIRSRPPRLPRPRPRPSLDPRP
-0.0696

Consider the sequence RRIRLRPPRLPRPRPRPKKRPRP and give its recorded shrunken log2 fold change.
0.277

Now look at this one.
Indicate its recorded shrunken log2 fold change; the sequence in question is RRIRDRPPRLPRPRPRPAEVPRP
0.46

###

System: Escherichia coli TOP10
Test: shrunken log2 fold change of peptide-encoding DNA abundance (4.5 h post-induction vs induction); higher = less antimicrobial activity (less host growth inhibition)
Conditions: time post-induction: 4.5 h; library: site-saturation at positions 5, 18, 19, 20
Record 1 whenever shrunken log2 fold change is at -0.04 or higher; record -1 when lower.

Is reported shrunken log2 fold change greater than or equal to -0.04 here: RRIRERPPRLPRPRPRPDFCPRP
-1

Decide: shrunken log2 fold change of RRIRGRPPRLPRPRPRPQRHPRP >= -0.04?
1

Is it the case that RRIRTRPPRLPRPRPRPNKLPRP has shrunken log2 fold change reaching or exceeding -0.04?
-1

***
Dear colleague, could you confirm whether RRIRPRPPRLPRPRPRPGTIPRP has shrunken log2 fold change at or above -0.04?
-1

Please indicate if the recorded shrunken log2 fold change for RRIRNRPPRLPRPRPRPMWGPRP meets or exceeds -0.04.
1

###

System: Escherichia coli TOP10
Assay: shrunken log2 fold change of peptide-encoding DNA abundance (4.5 h post-induction vs induction); higher = less antimicrobial activity (less host growth inhibition)
Settings: time post-induction: 4.5 h; library: site-saturation at positions 5, 18, 19, 20
readoutLabel: shrunken log2 fold change

Specify shrunken log2 fold change for RRIRIRPPRLPRPRPRPYDWPRP and stop.
-0.593

Retrieve shrunken log2 fold change measured for RRIRIRPPRLPRPRPRPIRSPRP and print it.
-0.273

Identify measured shrunken log2 fold change associated with RRIRLRPPRLPRPRPRPFYHPRP
-0.821

Hello, please tell me recorded shrunken log2 fold change for this one: RRIRVRPPRLPRPRPRPTVGPRP
0.553

Give me measured shrunken log2 fold change, please, for this sequence: RRIRMRPPRLPRPRPRPPWFPRP
0.568

Tell me measured shrunken log2 fold change for RRIRARPPRLPRPRPRPFCKPRP please.
-0.25

Name the recorded shrunken log2 fold change of the item RRIRCRPPRLPRPRPRPSTRPRP in your answer.
-0.119

Determine from records and report shrunken log2 fold change for RRIRPRPPRLPRPRPRPLRAPRP
0.86

Let me know recorded shrunken log2 fold change for RRIRPRPPRLPRPRPRPHWLPRP , thanks.
-0.0232

Specify measured shrunken log2 fold change for RRIRPRPPRLPRPRPRPRGWPRP .
1.12

Identify the reported shrunken log2 fold change for the following entry. RRIRCRPPRLPRPRPRPAPGPRP
0.75

Find the measured shrunken log2 fold change of RRIRYRPPRLPRPRPRPVIVPRP and report it.
-0.877

Provide only the value of recorded shrunken log2 fold change for RRIRDRPPRLPRPRPRPIRLPRP
0.015

Identify measured shrunken log2 fold change associated with RRIRQRPPRLPRPRPRPVKPPRP
-0.00215

Determine from records and report shrunken log2 fold change for RRIRGRPPRLPRPRPRPQCRPRP
0.0701

###

Tested on: Escherichia coli TOP10
Experiment: shrunken log2 fold change of peptide-encoding DNA abundance (4.5 h post-induction vs induction); higher = less antimicrobial activity (less host growth inhibition)
Details: time post-induction: 4.5 h; library: site-saturation at positions 5, 18, 19, 20
Given measured shrunken log2 fold change, output Met if it is greater than or equal to 0.05 and Not met if not.

Is it the case that RRIRWRPPRLPRPRPRPMFPPRP has shrunken log2 fold change reaching or exceeding 0.05?
Not met

***
Kindly determine if shrunken log2 fold change recorded for RRIRERPPRLPRPRPRPQSVPRP is above or exactly 0.05.
Not met

Please check the record RRIRNRPPRLPRPRPRPCRQPRP and state if its shrunken log2 fold change is at or above 0.05.
Not met

Could you please find out whether RRIRCRPPRLPRPRPRPTVSPRP has shrunken log2 fold change that meets 0.05 or exceeds it?
Met

Given the entry RRIRYRPPRLPRPRPRPLGEPRP , answer whether its shrunken log2 fold change meets or surpasses 0.05.
Not met

Reported shrunken log2 fold change reaches at least 0.05 for RRIRQRPPRLPRPRPRPYCRPRP ?
Not met

shrunken log2 fold change >= 0.05 for RRIRARPPRLPRPRPRPADNPRP ?
Met

Hi team, for RRIRNRPPRLPRPRPRPPVQPRP , is the recorded shrunken log2 fold change at or above 0.05?
Not met

Form field: shrunken log2 fold change at least 0.05? Entry: RRIRIRPPRLPRPRPRPHYAPRP
Not met

In plain terms: is recorded shrunken log2 fold change at least 0.05 for RRIRVRPPRLPRPRPRPYWCPRP ?
Not met

Does RRIRNRPPRLPRPRPRPVLIPRP have a reported shrunken log2 fold change of at least 0.05?
Not met

Kindly determine if shrunken log2 fold change recorded for RRIRCRPPRLPRPRPRPFHNPRP is above or exactly 0.05.
Met

Does shrunken log2 fold change meet or surpass 0.05 for RRIRARPPRLPRPRPRPERAPRP ?
Met

Decide: shrunken log2 fold change of RRIRSRPPRLPRPRPRPIVDPRP >= 0.05?
Met

Answer whether shrunken log2 fold change of RRIRSRPPRLPRPRPRPMSYPRP is greater than or equal to 0.05.
Not met

Is reported shrunken log2 fold change greater than or equal to 0.05 here: RRIRNRPPRLPRPRPRPNMHPRP
Not met

Is shrunken log2 fold change for RRIRNRPPRLPRPRPRPVPMPRP at or above 0.05?
Not met

Evaluate RRIRLRPPRLPRPRPRPTSVPRP : shrunken log2 fold change at minimum 0.05?
Not met

Given RRIRWRPPRLPRPRPRPLSPPRP , state whether its shrunken log2 fold change is at least 0.05.
Not met

Does RRIRERPPRLPRPRPRPGHFPRP have a reported shrunken log2 fold change of at least 0.05?
Met

Determine whether measured shrunken log2 fold change meets or exceeds 0.05 for RRIRMRPPRLPRPRPRPTFTPRP
Met

###

Test system: Escherichia coli TOP10;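 note: peptides expressed intracellularly from a pBAD plasmid library in pooled LB shake-flask culture, induced with 0.3% L-arabinose, DNA abundance read by NGS, three biological replicates, DESeq2 with apeglm shrinkage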
Assay: shrunken log2 fold change of peptide-encoding DNA abundance (4.5 h post-induction vs induction); higher = less antimicrobial activity (less host growth inhibition)
Details: time post-induction: 4.5 h; library: site-saturation at positions 5, 18, 19, 20
// false strictly below 0.1 in shrunken log2 fold change; true otherwise

These recorded examples may help you get a feel for the data.
// inclusive: shrunken log2 fold change at least 0.1? input: RRIRRRPPRLPRPRPRPSPVPRP
true

Has RRIRVRPPRLPRPRPRPAAEPRP a recorded shrunken log2 fold change greater than or equal to 0.1?
true

Determine whether this sequence has shrunken log2 fold change no lower than 0.1: RRIRDRPPRLPRPRPRPWDFPRP
true

Is shrunken log2 fold change for RRIRSRPPRLPRPRPRPKPCPRP at or above 0.1?
true

Dear colleague, could you confirm whether RRIRYRPPRLPRPRPRPIVDPRP has shrunken log2 fold change at or above 0.1?
false

More entries:
Decide: shrunken log2 fold change of RRIRTRPPRLPRPRPRPSSYPRP >= 0.1?
false

Reported shrunken log2 fold change at or above 0.1? RRIRQRPPRLPRPRPRPNGMPRP
false

Check this sequence for shrunken log2 fold change at or above 0.1: RRIRYRPPRLPRPRPRPTYCPRP
false

Answer whether shrunken log2 fold change of RRIRYRPPRLPRPRPRPVCKPRP is greater than or equal to 0.1.
false

Does the sequence RRIRWRPPRLPRPRPRPNGQPRP have recorded shrunken log2 fold change that is 0.1 or more?
true

Quick check: does RRIRKRPPRLPRPRPRPCWLPRP have shrunken log2 fold change greater than or equal to 0.1?
true

Is it the case that RRIRVRPPRLPRPRPRPRIRPRP has shrunken log2 fold change reaching or exceeding 0.1?
false

Please indicate if the recorded shrunken log2 fold change for RRIRLRPPRLPRPRPRPSDLPRP meets or exceeds 0.1.
false

In plain terms: is recorded shrunken log2 fold change at least 0.1 for RRIRCRPPRLPRPRPRPMGMPRP ?
false

Dear colleague, could you confirm whether RRIRWRPPRLPRPRPRPYEMPRP has shrunken log2 fold change at or above 0.1?
false

Decide: shrunken log2 fold change of RRIRMRPPRLPRPRPRPMCPPRP >= 0.1?
false

Does the reported shrunken log2 fold change for RRIRCRPPRLPRPRPRPHNEPRP fall at or above the 0.1 mark?
false

Given RRIRVRPPRLPRPRPRPCKQPRP , state whether its shrunken log2 fold change is at least 0.1.
false

Is it the case that RRIRTRPPRLPRPRPRPRPLPRP has shrunken log2 fold change reaching or exceeding 0.1?
true

Given the entry RRIRNRPPRLPRPRPRPCFPPRP , answer whether its shrunken log2 fold change meets or surpasses 0.1.
false

Threshold query (shrunken log2 fold change >= 0.1) on RRIRVRPPRLPRPRPRPCEPPRP
true
